Tested on: Plasmodium falciparum
measurementProtocol: Antiplasmodial activity against chloroquine-resistant Plasmodium falciparum FCB1-R/Colombia by [3H]hypoxanthine uptake
Format: functional, organism-based
conditionSet: Plasmodium falciparum, FCB1-R/Colombia
resultType: log10 of IC50 (log10 of the value in µM)
Give log10 of IC50, with IC50 taken in µM.

INSERT INTO measurements (compound, valueobserved) VALUES
  ('CC[C@H]1CN2CCC3c4ccccc4NC3[C@@H]2C[C@@H]1C[C@H]1NCCc2c1[nH]c1ccccc21 (stereo partly specified)', -0.58),
  ('CC1C2=CN3CCc4c([nH]c5ccc(O)cc45)C3CC2CC2NCCC3c4ccccc4N1C23 (stereo in doubt; 64)', 1.20),
  ('C/C=C1/CN2CC[C@@]34c5ccccc5N5C([C@H]6[C@@H]7N(C(C)=O)c8ccccc8[C@@]78CCN7C/C(=C/C)[C@@H]6C[C@H]78)OC=C([C@H]1C[C@H]23)[C@H]54 (stereo partly specified)', 0.33),
  ('CN1CCC2c3ccccc3N3C2[C@@H]1C[C@@H](C1=CCOC1=O)C[C@@H]3O (stereo partly specified)', 1.44);

Field request: log10 of IC50 | item: C[C@@H]1OC[C@H]2[C@@H]3C[C@H]4N(CC[C@]45c4ccccc4N[C@H]25)/C(=C/C2=CN4CC[C@]56c7ccccc7N[C@H]5[C@H](CO)[C@H]2C[C@H]46)[C@@H]31
0.72

For the compound shown here, C[C@@H]1CC[C@H]2[C@@H](C)C(=O)O[C@@H]3O[C@@]4(C)CC[C@@H]1[C@]32OO4 , give the reported log10 of IC50.
-2.30
